GI50 listing for selected compounds.
- System: A498
- Measurement Description: NCI tumour cell line growth inhibition, 48 h
Calls of active or inactive are those of the source. Rule as the data show it: active = GI50 up to about 1.1 µM and inactive = higher. Where a SMILES comes first, the peptide text is derived from it. The star is where a group is joined. Fmoc = O=C(OCC1c2ccccc2-c2ccccc21)*; OtBu = CC(C)(C)O*
Assay Metric: GI50

[[record]]
compound = "Clc1ccc(-c2nn3c(COc4cccc(OCc5nnc6sc(-c7ccc(Cl)cc7)nn56)c4)nnc3s2)cc1"
reading = "15.7 µM (inactive)"

[[record]]
compound = "O/N=C/[C@H]1COC2(CCCCC2)O1"
reading = "> 100 µM (inactive)"

[[record]]
compound = "CC(C)(C)OC/C=C(\\Br)CO"
reading = "> 100 µM (inactive)"

[[record]]
compound = "CC(=O)OCc1cc(=O)n2c([nH]c3ccccc32)c1C#N"
reading = "69.2 µM (inactive)"

[[record]]
compound = "Cc1ccc(NCCN(C)C)c2c(=O)c3cc(O)ccc3sc12"
reading = "6.79 µM (inactive)"

[[record]]
compound = "CCCCCCC1=NOC(C(c2cc[nH]c2)N(C)[C@H](C(=O)OC)C(C)C)C1 (some centres not stated)"
reading = "> 100 µM (inactive)"

[[record]]
compound = "CCc1nc(N)nc(N)c1-c1ccc(N2CCNCC2)cc1"
reading = "> 97.1 µM (inactive)"

[[record]]
compound = "CCOC(=O)C12CCCC1(O)N(NC(=O)c1cccc(Cl)c1)C(C)=C2C(=O)OC (configuration not stated)"
reading = "> 100 µM (inactive)"

[[record]]
compound = "CC(C)=CCNc1ncnc2c1ncn2CCC(=O)O"
reading = "> 100 µM (inactive)"

[[record]]
compound = "CC(=O)C1CCN(c2ccccc2)C1 (configuration not stated)"
reading = "> 100 µM (inactive)"

[[record]]
compound = "Cn1c(COC(=O)NC2CCCCC2)c(COC(=O)NC2CCCCC2)c2ccc3cc(Cl)c(Cl)cc3c21"
reading = "12.7 µM (inactive)"

[[record]]
compound = "Cc1ccc2c(=O)[nH]sc2c1"
reading = "64.1 µM (inactive)"

[[record]]
compound = "O=C(NC(=O)c1c(F)cccc1F)Nc1cccc(Oc2ncc(Cl)cn2)c1"
reading = "> 76.6 µM (inactive)"

[[record]]
compound = "CC(C)C(NC(=O)OCC1c2ccccc2-c2ccccc21)C(=O)NC(CCC(=O)OC(C)(C)C)C(=O)OC(C)(C)C (configuration not stated) (Fmoc-Val-Glu(OtBu)-OtBu; configuration not given here)"
reading = "58.5 µM (inactive)"

[[record]]
compound = "CCN1CCCCC(=N\\O)/C(=N/O)CCCC1"
reading = "> 100 µM (inactive)"

[[record]]
compound = "CN(C)/C=N/c1ccc2[nH]c3ccccc3c2c1"
reading = "20.9 µM (inactive)"

[[record]]
compound = "OC(Cc1cc(CC(O)(C(F)(F)F)C(F)(F)F)nc(CC(O)(C(F)(F)F)C(F)(F)F)c1)(C(F)(F)F)C(F)(F)F"
reading = "1.32 µM (inactive)"

[[record]]
compound = "C=CCOC1=C2CC[C@H](O)[C@@]2(C)CCC1=O"
reading = "> 100 µM (inactive)"

[[record]]
compound = "COc1ccccc1-n1cnc2c1=NC(C)(C)NC=2C(N)=O"
reading = "> 100 µM (inactive)"

[[record]]
compound = "Nc1ccn(C2OC(C(O)CO)C(O)C2O)c(=O)n1 (configuration not stated)"
reading = "> 100 µM (inactive)"

[[record]]
compound = "CO[C@H]1C[C@H](n2cc(C)c(=O)[nH]c2=O)O[C@@H]1CO"
reading = "> 100 µM (inactive)"

[[record]]
compound = "ON[C@@H]1C=C[C@H](n2cnc3c(NC4CC4)ncnc32)C1"
reading = "> 100 µM (inactive)"

